STUDY TARGET: T1, human CD3 on CD3+ Jurkat cells (human, UniProt P07766 23-207)
T1 construct: whole, on cells; Native CD3 complex on cells; the other CD3 chains are not specified for this assay; also called Human CD3+ Jurkat
T1 sequence (P07766 23-207): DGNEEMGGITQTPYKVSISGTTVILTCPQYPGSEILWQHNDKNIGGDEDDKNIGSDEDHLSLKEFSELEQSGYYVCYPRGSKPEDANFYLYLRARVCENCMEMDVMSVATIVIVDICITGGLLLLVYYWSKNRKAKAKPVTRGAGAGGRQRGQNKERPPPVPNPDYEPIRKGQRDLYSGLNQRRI
ASSAY REMARKS: flow cytometry, 100 nM IgG on CD3+ Jurkat cells, pH 7.4
Recorded MFI pH 7.4 values for a group of binders are listed next.
EXPERIMENTAL READOUT: MFI pH 7.4

>>> observed_result("SAD10320_P03_F09 (ADI-48656) (antibody, V domains shown, IgG; also called Ab101) VH: QVQLVQSGAEVKKPGASVKVSCKASGFNIKDYYMHWVRQAPGQRLEWMGWIDLENANTIYDAKFQGRVTITRDTSASTAYMELSSLRSEDTAVYYCARDAYGHDFYDVWGQGTLVTVSS VL: DIVMTQSPDSLAVSLGERATINCKSSQSLLNARTGKNYLAWYQQKPGQPPKLLIYWASTRESGVPDRFSGSGSGTDFTLTISSLQAEDVAVYYCKQSYHRRTFGGGTKVEIK")
"38 MFI"
>>> observed_result("SAD10318_P04_D11 (ADI-48616) (antibody, V domains shown, IgG; also called Ab219) VH: QVQLVQSGAEVKKPGASVKVSCKASGFNIKDYYMHWVRQAPGQRLEWMGWIDLENANTIYDAKFQGRVTITRDTSASTAYMELSSLRSEDTAVYYCARDAYGHYFYDVWGQGTLVTVSS VL: DIVMTQSPDSLAVSLGERATINCKSSQSLLNARTGHNHLAWYQQKPGQPPKLLIYWASTRESGVPDRFSGSGSGTDFTLTISSLQAEDVAVYYCHQSYSHRTFGGGTKVEIK")
"41 MFI"
>>> observed_result("SAD10318_P02_G06 (ADI-48600) (antibody, V domains shown, IgG; also called Ab189) VH: QVQLVQSGAEVKKPGASVKVSCKASGFNIKDYYMHWVRQAPGQRLEWMGWIDLENANTIYDAKFQGRVTITRDTSASTAYMELSSLRSEDTAVYYCAHDAYGHYFYDVWGQGTLVTVSS VL: DIVMTQSPDSLAVSLGERATINCKSSQSLLHTRTGKNYLAWYQQKPGQPPKLLIYWASTRESGVPDRFSGSGSGTDFTLTISSLQAEDVAVYYCKQSYSRRTFGGGTKVEIK")
"1340 MFI"
